# targetOrSystem: Glutathione peroxidase 1 (Homo sapiens)
# protocolDetails: Primary qHTS Assay for Inhibitors of Recombinant Selenoprotein Glutathione Peroxidase 1 (GPX1) (AID 1845191); note: nearly all actives have a fitted effect of over 65% in size
# experimentalParameters: recombinant GPX1, GR-coupled NADPH fluorescence, 15 min; series mostly up to 48.8 µM
Results filed as inconclusive are left out. Activity calls are given as the source filed them. Calls come from the whole dose curve; as a rule, active = well fitted inhibition curve with a large enough effect; inconclusive = small, poorly fitted or top-dose-only effect; inactive = flat fitted curve, though single readings scatter.
Outcomes you can answer with include only these: TRUE for active, FALSE for inactive

Observe how each entry below is paired with its result.
molecule: N#Cc1ncccn1
assignedLabel: FALSE
//
molecule: OC(CCN1CCCCC1)(c1ccccc1)C1CCCC1 (stereo not drawn)
assignedLabel: FALSE
//
molecule: CC(=O)OCC1=C(C(=O)O)N2C(=O)[C@@H](NC(=O)[C@H](N)c3ccccc3)[C@H]2SC1
assignedLabel: TRUE

Prompt: Record request — test call for O=C(O)CSc1nnc(Br)n1-c1ccc(C2CC2)c2ccccc12
Completion: FALSE

Prompt: Record request — test call for CN(C)c1ccc(C(=O)NCCCCCC(=O)NO)cc1
Completion: FALSE

Prompt: Record request — test call for CO/N=C(/C(=O)N[C@@H]1C(=O)N2C(C(=O)O)=CCS[C@H]12)c1csc(N)n1
Completion: TRUE

Prompt: Record request — test call for CC(c1ccc(-c2ccc(CC(=O)O)cn2)cc1)N1CCCCC1 (stereo not drawn)
Completion: FALSE

Prompt: Record request — test call for CC(C)n1cnc2c(NCc3ccccc3)nc(NCCCO)nc21
Completion: FALSE

Prompt: Record request — test call for CC(C)NC(=O)C1CCC(n2c(NC(=O)c3ccc(F)cc3)nc3ccc(CN4CCC(C(C)(C)O)CC4)cc32)CC1 (stereo not drawn)
Completion: FALSE

Prompt: Record request — test call for C[N+]1(C)C2CC[C@H]1CC(OC(=O)C(O)c1ccccc1)C2 (stereo partly drawn)
Completion: FALSE

Prompt: Record request — test call for CCC(CN)CC(C)CNCC(O)CNCC(CC)CC(CC)CN (stereo not drawn)
Completion: FALSE

Prompt: Record request — test call for COCC1=C(C(=O)O)N2C(=O)[C@@H](NC(=O)/C(=N\OC)c3csc(N)n3)[C@H]2SC1
Completion: TRUE

Prompt: Record request — test call for CN(Cc1ccccc1)C(=O)[C@H](NC(=O)c1cc2cc(NC(=O)c3ccccc3-c3ccc(C(F)(F)F)cc3)ccc2n1C)c1ccccc1
Completion: FALSE

====

# targetOrSystem: Rap guanine nucleotide exchange factor 3 (Homo sapiens)
# protocolDetails: Counterscreen qHTS for agonist of cAMP-regulated guanine nucleotide exchange factor 3 (EPAC1) (AID 1645889); note: % of control where 0% means no effect; nearly all actives have a fitted effect of over 40% in size
# experimentalParameters: EPAC1 Rap1B-BODIPY-GDP exchange, fluorescence; series mostly up to 154 µM
Results filed as inconclusive are left out. The source made the active and inactive calls. The call rests on the fitted dose curve; in most records, active means well fitted activation curve with a large enough effect; inconclusive means small, poorly fitted or top-dose-only effect, or another doubt; inactive means no such curve, though single readings can be large or run the other way.
measureName: activation

Past entries and their recorded results:
compound: COc1ccc2oc(C(=O)Nc3ccc(N4CCOCC4)cc3)c(C)c2c1
activation: 8.1% [at 30.8 µM] (inactive)

compound: CCCc1[nH]c2ccc(C(=O)OC)cc2c1CCC
activation: inactive

compound: Cc1ccc2nc(-c3ccccc3)c(Cc3cccc(F)c3)n2c1
activation: inactive

compound: COc1ccc(-c2cnnc(N/N=C/c3ccc(O)c(O)c3)n2)cc1
activation: inactive

compound: CCc1c(C2(O)CCCCC2)[nH]c2c(C(=O)OC)cc(Cl)cc12
activation: inactive

compound: O=C(c1ccccc1)C(c1ccccc1)c1ccccc1
activation: 12.8% [at 30.8 µM] (inactive)

compound: O=C(NC1CCC(O)CC1)c1ccc(S(=O)(=O)NCc2ccco2)cc1 (stereo not drawn)
activation: inactive

compound: CCOC(=O)C1Nc2ccc(C(F)(F)F)cc2C2C=CCC12 (stereo not drawn)
activation: 11.6% [at 30.8 µM] (inactive)

Prompt: Query: activation; subject: N#C/C(=C/c1ccc(O)c(O)c1)C(=O)NCc1ccc(Cl)cc1
Completion: 19.6% [at 30.8 µM] (inactive)

====

# targetOrSystem: Rap guanine nucleotide exchange factor 3 (Homo sapiens)
# protocolDetails: Confirmatory qHTS for antagonist of cAMP-regulated guanine nucleotide exchange factor 3 (EPAC1) (AID 1645880); note: nearly all actives have a fitted effect of over 55% in size
# experimentalParameters: EPAC1 Rap1B-BODIPY-GDP exchange, fluorescence
# Excerpt: Assay Provider (PI): Xiaodong Cheng Ph.D. The University of Texas Medical Branch, […], TX MLPCN Grant: NS066510 In multi-cellular eukaryotic organisms, the effects of cAMP are transduced by two ubiquitously-expressed intracellular cAMP receptors, the classic protein kinase A/cAMP-dependent protein kinase (PKA/cAPK) and the more recently discovered exchange protein directly activated by cAMP/cAMP-regulated guanine nucleotide exchange factor (EPAC/cAMP-GEF). […]
Records with an inconclusive call do not appear. Active and inactive are the calls of the source. The call rests on the fitted dose curve; in most records, active means well fitted inhibition curve with a large enough effect; inconclusive means small, poorly fitted or top-dose-only effect; inactive means no such curve, though single readings can be large or run the other way.
Outcomes you can answer with include only these: class 1 (active), class 0 (inactive)

Observe how each entry below is paired with its result.
molecule: CC(C)=CCC1=C(OCC(=O)O)C(=O)c2ccccc2C1=O
assignedLabel: class 1
--
molecule: O=C(O)CCCN1C(=O)/C(=C/c2cn(-c3ccccc3)nc2-c2cccs2)SC1=S
assignedLabel: class 0
--
molecule: COc1cc(/C=C(\C#N)c2nc3ccccc3s2)cc([N+](=O)[O-])c1O
assignedLabel: class 1
--
molecule: CN1CCS/C1=C\C=C1/SC(=S)N(CC(=O)O)C1=O
assignedLabel: class 0
--
molecule: Cc1ccc(CN(Cc2ccco2)C(=O)c2ccco2)cc1
assignedLabel: class 0
--
molecule: O=C(CSc1nc2nn(-c3ccccc3)c(=O)c-2c2n1CCCCC2)c1ccc(O)c(O)c1
assignedLabel: class 1

Prompt: Record request — test call for CCC(=O)NC(c1cccs1)c1cc([N+](=O)[O-])c2cccnc2c1O (stereo not drawn)
Completion: class 1

Prompt: Record request — test call for CCCCc1c(C)nc2ccccc2c1SCCC#N
Completion: class 0

Prompt: Record request — test call for CC(C)CC1=NN2C(=N)/C(=C\c3coc4ccccc4c3=O)C(=O)N=C2S1
Completion: class 0

Prompt: Record request — test call for CCOC(=O)CSc1nc2c(c(=O)n(C)c(=O)n2C)n1Cc1ccccc1F
Completion: class 0

Prompt: Record request — test call for Cc1cc(C)c(S(=O)(=O)N2CCCC2)c(C)c1
Completion: class 0

Prompt: Record request — test call for N#CC(C(=O)NCc1ccccc1)c1nc2ccccc2nc1N1CCCC1 (stereo not drawn)
Completion: class 0

Prompt: Record request — test call for CCN(C(=O)c1sc2cc(OC)ccc2c1Cl)c1ccccc1
Completion: class 0

Prompt: Record request — test call for Cc1cc(NS(=O)(=O)c2ccc(NC(=O)COc3c(C)cc(Br)cc3C)cc2)no1
Completion: class 0

====

# targetOrSystem: Dual specificity protein kinase CLK4 (Homo sapiens)
# protocolDetails: qHTS Assay for Inhibitors of CDC-like Kinase 4 (Kinase-Glo Assay) (AID 1770); note: nearly all actives have a fitted effect of over 65% in size
# experimentalParameters: recombinant Clk4, Kinase-Glo ATP depletion luminescence; series mostly up to 66.7 µM
Results filed as inconclusive are left out. The source made the active and inactive calls. Calls come from the whole dose curve; as a rule, active = well fitted inhibition curve with a large enough effect; inconclusive = small, poorly fitted or top-dose-only effect; inactive = flat fitted curve, though single readings scatter.
Outcomes you can answer with include only these: 1 = active, -1 = inactive

Prompt: Record request — test call for O=c1c(CCc2ccccc2)nc2cnc(Nc3ccccc3)nc2n1C[C@H]1CCCO1
Completion: -1

Prompt: Record request — test call for COc1cccc(-c2nc(NCc3cccnc3)c3ccccc3n2)c1
Completion: 1

Prompt: Record request — test call for CN(C)c1ncc2nc(CCc3ccccc3)c(=O)n(CCc3ccccc3)c2n1
Completion: -1

Prompt: Record request — test call for COc1ccc(-n2c(=O)c(CCc3ccccc3)nc3cnc(OC)nc32)cc1
Completion: -1

====

# protocolDetails: NFAT Signaling Pathway (AID 444);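 note: carbachol stimulus at about its EC50 of 1 µM final; % is set by controls: 0 for no effect and ±100 for the full control effect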
# experimentalParameters: Jurkat NFAT-bla M1, carbachol, beta-lactamase ratio, 5 h; at 7.69 µM (top of the series) unless noted
Records with an inconclusive call do not appear. Active and inactive are the calls of the source. The call rests on the fitted dose curve; in most records, active means well fitted curve in either direction with a large enough effect (not every such curve was filed as active); inconclusive means small, poorly fitted or top-dose-only effect, or another doubt; inactive means flat fitted curve, though single readings scatter.
measureName: activity change, negative = inhibition

Past entries and their recorded results:
mol: COc1ccc(-n2c(=O)c(-c3cccs3)nc3cnc(N4CCN(C)CC4)nc32)cc1
valueReported: 4.91% (inactive)
--
mol: CC(NC(=O)Nc1ccc(O)cc1)(C(F)(F)F)C(F)(F)F
valueReported: 11.8% [at 17.2 µM] (inactive)
--
mol: CN1CCN(c2ncnc3ccc(-c4ccccc4C(F)(F)F)cc23)CC1
valueReported: -19.6% (inactive)
--
mol: COc1ccccc1-c1nccc(NCc2cccs2)n1
valueReported: -12.7% (inactive)
--
mol: COCCn1c(=O)c(CCc2ccccc2)nc2cnc(OCc3ccccc3)nc21
valueReported: 4.34% (inactive)
--
mol: Cn1c(=O)c(-c2ccccc2)nc2cnc(N3CCOCC3)nc21
valueReported: 3.19% (inactive)

Prompt: Query: activity change, negative = inhibition; subject: O=c1cnc2cnc(N3CCOCC3)nc2n1Cc1cccs1
Completion: -0.57% (inactive)

Prompt: Query: activity change, negative = inhibition; subject: COc1cccc(Cn2c(=O)cnc3cnc(N(C)C)nc32)c1
Completion: -0.24% (inactive)

Prompt: Query: activity change, negative = inhibition; subject: O=c1cnc2cnc(Oc3ccccc3)nc2n1Cc1cccs1
Completion: -1.41% (inactive)

Prompt: Query: activity change, negative = inhibition; subject: CN(C)c1ncc2ncc(=O)n(Cc3cccs3)c2n1
Completion: -18.4% (inactive)
